Experiment: HoxA9-arrested leukemia cell differentiation promoters – flow cytometry, MLPCN library, primary screen (AID 624256);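 note: cells exposed to compound for four days before flow analysis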
Conditions: ER-HoxA9 myeloid progenitors, lysozyme-GFP differentiation, at 10 µM; measured here: differentiation confirmed by MAC1 staining, stronger effect = higher value
Out of some 360,000 compounds screened, about 3,700 (1%) were called active. Another 2% or so got no clear call; they are omitted. This is one part of a sample in which actives are shown more often than they occur.
Consider the reported GFP+ MAC1+ double positive of an entry and match it to a band in low value: < 1%; medium value: ≥ 1% and < 2%; high value: ≥ 2%

[[record]]
compound = "Cn1cc(C2OC(=O)c3ccccc32)c2ccccc21 (stereo not given)"
class_name = "medium value"

[[record]]
compound = "COC(=O)[C@]12CCCCC=C1N(Cc1ccc(Cl)cc1Cl)C(=O)[C@H](CC(=O)NCc1cccc3ccccc13)C2"
class_name = "medium value"

[[record]]
compound = "O[C@H]1C[C@H](c2ccc(Cl)cc2)N(Cc2cccs2)C[C@@H]1n1cc(C2CC2)nn1"
class_name = "high value"

[[record]]
compound = "COc1cccc(CN(C)C(=O)CC[C@H]2O[C@@H](n3cnc4c(NC(=O)c5ccccc5)ncnc43)[C@H](O)[C@@H]2O)c1"
class_name = "low value"

[[record]]
compound = "CC(C(=O)O)N1C(=O)c2cccc3cccc1c23 (stereo not given)"
class_name = "medium value"

[[record]]
compound = "Cc1cc2nc(-c3ccc(Cl)cc3)c(Cc3cccc(F)c3)n2c(C)c1Br"
class_name = "medium value"

[[record]]
compound = "Cc1ccc(-c2ccnc3[nH]n(-c4ccccc4)c(=O)c23)cc1"
class_name = "low value"

[[record]]
compound = "CCOC(=O)[C@]12CCC=C1N(Cc1ccco1)C(=O)[C@H](CC(=O)NCc1cccc(C(F)(F)F)c1)C2"
class_name = "medium value"

[[record]]
compound = "Cc1nn(C)cc1N1C(=O)c2cccc3c(N)ccc(c23)C1=O"
class_name = "high value"

[[record]]
compound = "CC#CC[N+](C)(C)CCCCCC"
class_name = "medium value"

[[record]]
compound = "Cc1ccc(N2C(=O)c3ccccc3C2(O)c2ncc[nH]2)cc1 (stereo not given)"
class_name = "medium value"

[[record]]
compound = "O=C(CN(c1ccccc1)S(=O)(=O)c1ccc(Cl)cc1)Nc1ccccc1C(=O)N1CCCC1"
class_name = "high value"

[[record]]
compound = "CC(C)N1C(=O)c2ccccc2NC(=O)C1C(=O)NCc1cccs1 (stereo not given)"
class_name = "high value"

[[record]]
compound = "O[C@H]1CN(Cc2cccs2)[C@@H](c2ccc(Cl)cc2)C[C@@H]1n1cc(C2CC2)nn1"
class_name = "medium value"

[[record]]
compound = "CCCCOCCCNC(=O)C[C@@H]1C[C@@]2(C(=O)OCC)CCCC=C2N(CCC2=CCCCC2)C1=O"
class_name = "medium value"

[[record]]
compound = "O=c1c2c(-c3ccccc3)ccnc2[nH]n1-c1ccccc1"
class_name = "low value"

[[record]]
compound = "O=[N+]([O-])c1ccc(CN2CC(N3CC=CC3)CS2(=O)=O)cc1 (stereo not given)"
class_name = "low value"

[[record]]
compound = "Cc1cc(C)n2c(Nc3c(C)cccc3C)c(CCc3ccccc3)nc2n1"
class_name = "low value"


---

Assay: HoxA9-arrested leukemia cell differentiation promoters – flow cytometry, MLPCN library, primary screen (AID 624256);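 note: cells exposed to compound for four days before flow analysis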
Conditions: ER-HoxA9 myeloid progenitors, lysozyme-GFP differentiation, at 10 µM; measured here: differentiation confirmed by MAC1 staining, stronger effect = higher value
In all, about 360,000 compounds went through this assay and about 3,700 (1%) were called active. Inconclusive results (about 2%) are left out. Many of the other results were omitted from the sample, so actives are more common in it than they were. Where a SMILES comes first, the peptide text is derived from it. The star is where a group is joined. OPac = O=C(CO*)c1ccccc1; Bz = O=C(c1ccccc1)*
I'd appreciate it if you could label each record using GFP+ MAC1+ double positive and these ranges: interval 1 (below 0.4%), interval 2 (0.4% to below 1%), interval 3 (1% or more)

[[record]]
molecule = "N#CCC(=O)NC(=O)NCC1CC1"
class_name = "interval 3"

[[record]]
molecule = "O=C(Nc1ccc(F)cc1)C(CCc1ccccc1)N1CCN(CC(=O)N2CCCC2)CC1 (stereo unspecified)"
class_name = "interval 3"

[[record]]
molecule = "COc1ccc2nc(-c3ccccn3)ccc2c1"
class_name = "interval 1"

[[record]]
molecule = "O=C(CNC(=O)c1ccccc1)NCC(=O)OCC(=O)c1ccccc1 (Bz-Gly-Gly-OPac)"
class_name = "interval 1"

[[record]]
molecule = "CC(C)C[C@@H]1Cc2[nH][nH]c(=O)c2[C@H](CCc2ccccc2)O1"
class_name = "interval 2"

[[record]]
molecule = "CC(C)(C)NC(=O)NC(=O)COC(=O)CCC1CCCCC1"
class_name = "interval 2"

[[record]]
molecule = "Cc1ccccc1OCC(=O)NCC(=O)OCC(=O)c1ccc2ccccc2c1"
class_name = "interval 3"

